The measured values listed here are drawn from patent US11578069B2.

Molecular target: α4β7 integrin (Homo sapiens, UniProt P13612+P26010)
Construct: monitoring the capture of α4β7 integrin expressing cells; endogenous in cells; host or cells: RPMI8866
Sequence (P13612 34-1032): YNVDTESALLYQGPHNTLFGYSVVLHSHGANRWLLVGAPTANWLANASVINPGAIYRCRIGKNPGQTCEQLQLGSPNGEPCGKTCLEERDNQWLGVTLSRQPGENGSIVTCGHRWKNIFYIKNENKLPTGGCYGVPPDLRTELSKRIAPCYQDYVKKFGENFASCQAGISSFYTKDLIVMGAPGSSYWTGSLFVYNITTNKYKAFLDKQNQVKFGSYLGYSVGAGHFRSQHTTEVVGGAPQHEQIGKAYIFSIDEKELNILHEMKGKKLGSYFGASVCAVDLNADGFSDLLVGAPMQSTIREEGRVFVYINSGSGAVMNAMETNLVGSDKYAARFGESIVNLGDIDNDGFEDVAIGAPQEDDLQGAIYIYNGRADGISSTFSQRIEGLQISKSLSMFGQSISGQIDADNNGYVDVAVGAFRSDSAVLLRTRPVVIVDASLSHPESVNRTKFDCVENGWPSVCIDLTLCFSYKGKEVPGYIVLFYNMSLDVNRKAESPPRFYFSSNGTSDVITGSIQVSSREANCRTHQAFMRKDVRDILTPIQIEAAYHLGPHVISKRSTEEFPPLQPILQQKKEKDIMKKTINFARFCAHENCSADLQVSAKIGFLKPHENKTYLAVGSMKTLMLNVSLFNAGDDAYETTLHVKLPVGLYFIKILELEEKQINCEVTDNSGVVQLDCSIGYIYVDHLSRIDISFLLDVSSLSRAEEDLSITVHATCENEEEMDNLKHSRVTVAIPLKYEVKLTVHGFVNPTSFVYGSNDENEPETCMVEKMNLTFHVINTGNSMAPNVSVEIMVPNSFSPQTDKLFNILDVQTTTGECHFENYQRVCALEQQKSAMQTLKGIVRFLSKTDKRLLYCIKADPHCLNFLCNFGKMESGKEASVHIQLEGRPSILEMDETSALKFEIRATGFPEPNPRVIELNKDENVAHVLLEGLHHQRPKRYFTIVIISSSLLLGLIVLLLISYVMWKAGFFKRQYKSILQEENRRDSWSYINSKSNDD
Sequence (P26010 20-798): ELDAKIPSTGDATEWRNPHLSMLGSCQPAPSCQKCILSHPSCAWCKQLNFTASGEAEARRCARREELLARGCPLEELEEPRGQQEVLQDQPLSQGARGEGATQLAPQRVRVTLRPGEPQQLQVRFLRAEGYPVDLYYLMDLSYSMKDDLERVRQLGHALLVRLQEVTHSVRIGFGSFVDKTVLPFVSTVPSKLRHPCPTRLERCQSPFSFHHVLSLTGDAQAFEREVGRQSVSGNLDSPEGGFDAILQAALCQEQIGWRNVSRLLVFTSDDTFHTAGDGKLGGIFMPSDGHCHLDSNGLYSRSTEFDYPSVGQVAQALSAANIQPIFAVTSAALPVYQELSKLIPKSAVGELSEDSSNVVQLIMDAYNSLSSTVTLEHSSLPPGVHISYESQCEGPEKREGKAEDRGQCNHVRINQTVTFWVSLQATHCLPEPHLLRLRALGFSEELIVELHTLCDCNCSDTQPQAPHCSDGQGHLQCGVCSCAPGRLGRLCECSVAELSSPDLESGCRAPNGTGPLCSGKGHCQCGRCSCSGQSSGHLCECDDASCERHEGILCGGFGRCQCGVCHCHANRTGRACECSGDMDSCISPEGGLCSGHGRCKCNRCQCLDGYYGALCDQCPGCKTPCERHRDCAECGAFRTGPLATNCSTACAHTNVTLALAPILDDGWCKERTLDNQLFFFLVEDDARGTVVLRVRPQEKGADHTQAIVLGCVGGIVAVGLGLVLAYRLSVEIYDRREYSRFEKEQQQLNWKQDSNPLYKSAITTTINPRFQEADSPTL
Experiment: α4β7 Integrin Cell Capture Assay
Assay type: cell-based
Settings: capture of α4β7 integrin expressing RPM18866 cells on MadCAM-1 extracellular domain-coated plate; Table 1
Recorded pEC50 by entry
Please express pEC50 as -log10 of the molar concentration.

pEC50 reading for "CC[C@@H](Nc1cc(F)c(C(=O)N[C@@H](Cc2ccc(-c3c(C(F)(F)F)cc(C)n(C)c3=O)cc2)C(=O)O)c(F)c1)C(F)(F)F" : 8.85

* * *

target: α4β7 integrin (Homo sapiens, UniProt P13612+P26010); construct: monitoring the capture of α4β7 integrin expressing cells; endogenous in cells; host or cells: RPMI8866; assay: α4β7 Integrin Cell Capture Assay; type: cell-based; settings: capture of α4β7 integrin expressing RPM18866 cells on MadCAM-1 extracellular domain-coated plate; Table 1
Measured endpoint: log10 of EC50 (log10 of the value in nM)
Each number you see is log10 of EC50, and the unit inside the log is nM.

Worked cases, answers included:
log10 of EC50 reading for Cc1cc(N2CCOC[C@@H]2CC(F)F)cc(F)c1C(=O)N[C@@H](Cc1ccc(-n2c(=O)c3c(n(C)c2=O)CCOC3)cc1)C(=O)O [Example 57] : -0.70

log10 of EC50 reading for Cc1cc(N2CCOC[C@@H]2C(F)(F)F)cc(F)c1C(=O)N[C@@H](Cc1ccc(-c2nc(C)c(C)n(C)c2=O)c(Cl)c1)C(=O)O [Example 7] : -0.30

log10 of EC50 reading for CC[C@@H](N(c1cc(F)c(C(=O)N[C@@H](Cc2ccc(-n3c(=O)c4ccncc4n(C)c3=O)nc2)C(=O)O)c(F)c1)C1CC1)C(F)(F)F [Example 19] : 0.30

log10 of EC50 reading for CC[C@@H](Nc1cc(F)c(C(=O)N[C@@H](Cc2ccc(-n3c(=O)c4ccncc4n(C)c3=O)nc2)C(=O)O)c(F)c1F)C(F)(F)F [Example 17] : -0.15

Further cases:
log10 of EC50 reading for Cc1cc(N2CCOC[C@@H]2C(F)(F)F)cc(F)c1C(=O)N[C@@H](Cc1ccc(-n2c(=O)c3c(n(C)c2=O)CCC3)cc1)C(=O)O [Example 64] : -1.00

log10 of EC50 reading for Cc1c(C(F)(F)F)cn(C)c(=O)c1-c1ccc(C[C@H](NC(=O)c2c(F)cc(N3CCOC[C@@H]3C(F)(F)F)cc2F)C(=O)O)cc1 [Example 4] : 0.08

log10 of EC50 reading for Cc1cc(C(F)(F)F)c(-c2ccc(C[C@H](NC(=O)c3c(F)cc(N4CCOC[C@@H]4C(F)(F)F)cc3F)C(=O)O)cc2F)c(=O)n1C [Example 6] : -0.52

log10 of EC50 reading for Cn1c2c(c(=O)n(-c3ccc(C[C@H](NC(=O)c4c(F)cc(N5CCOC[C@@H]5C(F)(F)F)cc4F)C(=O)O)cc3)c1=O)CCOC2 [Example 61] : -0.40

* * *

target: α4β1 integrin (Homo sapiens, UniProt P05556+P13612); construct: monitoring the capture of α4β1 expressing cells; endogenous in cells; host or cells: Jurkat; assay: α4β1 Cell Capture Assay; format: cell-based; conditions: capture of α4β1 expressing Jurkat cells on VCAM-1 extracellular domain-coated plate; Table 2
Binary label based on EC50 with cut-off 10 nM: below gives 1.0, not below gives 0.0.

Field: example entries. Status: answers known.
stdin: Threshold test, EC50 < 10 nM: "Cc1cc(N2CCOC[C@@H]2C(F)(F)F)cc(F)c1C(=O)N[C@@H](Cc1ccc(-n2c(=O)c3c(C#N)cccc3n(C)c2=O)nc1)C(=O)O"
stdout: 1.0

stdin: Threshold test, EC50 < 10 nM: "Cc1cc(C[C@H](NC(=O)c2c(C)cc(N3CCOC[C@@H]3C(F)(F)F)cc2F)C(=O)O)ccc1-c1c(C)n(C)c(=O)n(C)c1=O"
stdout: 0.0

stdin: Threshold test, EC50 < 10 nM: Cc1cc(N2CCOC[C@@H]2C(F)(F)F)cc(F)c1C(=O)N[C@@H](Cc1ccc(-n2c(=O)c3ccncc3n(C)c2=O)c(C(F)(F)F)c1)C(=O)O (atropisomer, axis not shown) [Example 90]
stdout: 1.0

stdin: Threshold test, EC50 < 10 nM: "Cc1cc(N2CCOC[C@H]2CC(F)(F)F)cc(F)c1C(=O)N[C@@H](Cc1ccc(-n2c(=O)c3ccncc3n(C)c2=O)nc1)C(=O)O"
stdout: 0.0

Further cases:
stdin: Threshold test, EC50 < 10 nM: "CC[C@@H](Nc1cc(F)c(C(=O)N[C@@H](Cc2ccc(-c3c(C)n(C)c(=O)n(C)c3=O)cc2)C(=O)O)c(F)c1)C(F)(F)F"
stdout: 0.0

* * *

Recorded EC50 by entry
target: α4β7 integrin (Homo sapiens, UniProt P13612+P26010); construct: monitoring the capture of α4β7 integrin expressing cells; endogenous in cells; host or cells: RPMI8866; assay: α4β7 Integrin Cell Capture Assay; format: cell-based; details: capture of α4β7 integrin expressing RPM18866 cells on MadCAM-1 extracellular domain-coated plate; Table 2
State the answer as a number, implicitly in nM.

Worked cases, answers included:
EC50 reading for "CC[C@@H](Nc1cc(F)c(C(=O)N[C@@H](Cc2ccc(-c3c(C)c4cc(F)ccc4n(C)c3=O)cc2)C(=O)O)c(F)c1)C(F)(F)F" : 3.2

EC50 reading for "Cc1cc(N2CCOC[C@@H]2C(F)(F)F)cc(F)c1C(=O)N[C@@H](Cc1ccc(-n2c(=O)c3ccncc3n(C)c2=O)c(F)c1)C(=O)O" : 0.05

Further cases:
EC50 reading for "Cc1cc(C[C@H](NC(=O)c2c(C)cc(N3CCOC[C@@H]3C(F)(F)F)cc2F)C(=O)O)ccc1-c1c(C)n(C)c(=O)n(C)c1=O" : 0.2
